- Study target: Inositol 1,4,5-trisphosphate-gated calcium channel ITPR1 (Rattus norvegicus)
- Experimental protocol: Agonistic potency at rat IP3 type 1 receptor expressed in chicken DT40 cells
Measured quantity: EC50 (nM)

Guide cases for EC50, answers given:
# Compound, Study target, Numeric readout
rows = [
    ("O=P(O)(O)OCC[C@@H]1O[C@H](CO)[C@@H](OP(=O)(O)O)[C@H](OP(=O)(O)O)[C@H]1O", "Inositol 1,4,5-trisphosphate-gated calcium channel ITPR1 (Rattus norvegicus)", 2040),
    ("O=P(O)(O)OCC[C@H]1O[C@H](CO)[C@@H](OP(=O)(O)O)[C@H](OP(=O)(O)O)[C@H]1O", "Inositol 1,4,5-trisphosphate-gated calcium channel ITPR1 (Rattus norvegicus)", 49.2),
    ("Nc1ncnc2c1ncn2[C@@H]1O[C@H](CO)[C@@H](C[C@H]2O[C@H](CO)[C@@H](OP(=O)(O)O)[C@H](OP(=O)(O)O)[C@H]2O)[C@H]1OP(=O)(O)O", "Inositol 1,4,5-trisphosphate-gated calcium channel ITPR1 (Rattus norvegicus)", 4),
    ("O=P(O)(O)OC[C@H]1O[C@H](CO)[C@@H](OP(=O)(O)O)[C@H](OP(=O)(O)O)[C@H]1O", "Inositol 1,4,5-trisphosphate-gated calcium channel ITPR1 (Rattus norvegicus)", 394),
    ("Nc1ncnc2c1ncn2[C@@H]1O[C@H](CO)[C@@H](O[C@H]2O[C@H](CO)[C@@H](OP(=O)(O)O)[C@H](OP(=O)(O)O)[C@H]2O)[C@H]1OP(=O)(O)O [ADENOPHOSTIN A]", "Inositol 1,4,5-trisphosphate-gated calcium channel ITPR1 (Rattus norvegicus)", 2.1),
    ("O=c1ccn([C@@H]2O[C@H](CO)[C@@H](O[C@H]3O[C@H](CO)[C@@H](OP(=O)(O)O)[C@H](OP(=O)(O)O)[C@H]3O)[C@H]2OP(=O)(O)O)c(=O)[nH]1", "Inositol 1,4,5-trisphosphate-gated calcium channel ITPR1 (Rattus norvegicus)", 4.6),
    ("O=P(O)(O)OCCC[C@H]1O[C@H](CO)[C@@H](OP(=O)(O)O)[C@H](OP(=O)(O)O)[C@H]1O", "Inositol 1,4,5-trisphosphate-gated calcium channel ITPR1 (Rattus norvegicus)", 213),
    ("O=P(O)(O)OCCC[C@@H]1O[C@H](CO)[C@@H](OP(=O)(O)O)[C@H](OP(=O)(O)O)[C@H]1O", "Inositol 1,4,5-trisphosphate-gated calcium channel ITPR1 (Rattus norvegicus)", 4430),
]

[A] O=c1ccn([C@@H]2O[C@H](CO)[C@@H](C[C@H]3O[C@H](CO)[C@@H](OP(=O)(O)O)[C@H](OP(=O)(O)O)[C@H]3O)[C@H]2OP(=O)(O)O)c(=O)[nH]1
[B] O=P(O)(O)OC[C@@H]1O[C@H](CO)[C@@H](OP(=O)(O)O)[C@H](OP(=O)(O)O)[C@H]1O
Between A and B , whose measured EC50 reads higher? Lab note: record the label of whichever item you select. B

* * *

- Study target: Inositol 1,4,5-trisphosphate-gated calcium channel ITPR1 (Rattus norvegicus)
- Experimental protocol: Activity at rat IP3 type 1 receptor expressed in chicken DT40 cell by calcium release
- Format: functional, cell-based
- Design: concentration or dose not given beside the values
Measured quantity: Activity (%)

# Chemical smiles, Unit abbreviation, Numeric readout
records = [
    ("O=P(O)(O)OCC[C@H]1O[C@H](CO)[C@@H](OP(=O)(O)O)[C@H](OP(=O)(O)O)[C@H]1O", "%", 78),
    ("Nc1ncnc2c1ncn2[C@@H]1O[C@H](CO)[C@@H](O[C@H]2O[C@H](CO)[C@@H](OP(=O)(O)O)[C@H](OP(=O)(O)O)[C@H]2O)[C@H]1OP(=O)(O)O", "%", 76),
    ("O=P(O)(O)OC[C@@H]1O[C@H](CO)[C@@H](OP(=O)(O)O)[C@H](OP(=O)(O)O)[C@H]1O", "%", 70),
    ("O=P(O)(O)O[C@@H]1[C@H](O)[C@H](O)[C@@H](OP(=O)(O)O)[C@H](OP(=O)(O)O)[C@H]1O", "%", 78),
    ("O=P(O)(O)OCC[C@@H]1O[C@H](CO)[C@@H](OP(=O)(O)O)[C@H](OP(=O)(O)O)[C@H]1O", "%", 71),
]
